- protocol_description: soluble on expression in E. coli; label from the status in PepcDB or PDB records
measured_quantity: soluble on expression in E. coli

In the examples that follow, each entry is paired with its recorded soluble on expression in E. coli.
>  <residue_codes>
MAHHHHHHMKLLLQADTPGGAAEREANPKYLSTDTLIIVPGHGVLNAPNASEWKNESEWCLEPHQLRAGVVLPLCFASHIRRGLEILRDQINTSILIFSGGQTCGIAGPRSEALGYYIVAKESKLFGIFEPEYVAKDIMNGRIFTEEFARDSYENLLFSIARFYEVTGHFPGSVVVVGWKHKAERFTMYHREAIRFPADKFTYVGLDFADAEPFVEDLQPYQVAKPYTDENALSSVSKDMYLCDAGRRTRSKRNPYFRVPPYLVSCPPLRQLLQHCGPELIDTRRVPWK

>  <soluble on expression in E. coli>
not soluble

$$$$
>  <residue_codes>
MATQKEKPSSNSFKWFSTKTLKLNLSFQNRRRSPKSNSSSTLNSPRSNSDDNNNIKSHQASKEELRQVFSHFDSDGDGKISAFELRHYFGSVGEYISHEAAQEAINEVDTDADGSLGFEDFVGLMTRRDLYGDGEVDGDGELKTAFEMFEVEKGSGCITPKGLQKMLVKLGESRTYGECEAMIKFYDIDGNGILDFHEFRQMMTV

>  <soluble on expression in E. coli>
soluble

$$$$
>  <residue_codes>
MTRIAIALAQDFADWEPALLAAAARSYLGVEIVHATPDGMPVTSMGGLKVTPDTSYDALDPVDIDALVIPGGLSWEKGTAADLGGLVKRFRDRDRLVAGICAAASALGGTGVLNDVAHTGNALASHKAYPAYRGEAHYRDQPRAVSDGGVVTAAGSAPVSFAVEILKSLGLFGPEAEAELQIFAAEHR

>  <soluble on expression in E. coli>
soluble

$$$$
>  <residue_codes>
MSLVSLPKLSAKIIIRLIYIYQIGISPILGHHCRFSITCSQYGINSIRNFGILKGCWKTCIRILKCHPFNKNDNTQEGHHHHHH

>  <soluble on expression in E. coli>
soluble

$$$$
>  <residue_codes>
MGSDKIHHHHHHMEIPPEILQSLIELGFTKYEVLTYWTLLVYGPSTAKEISIRSGIPYNRVYDTISSLKVRGFVTEIEGNPKVYAAYSPRIAFLRFKKELDEISEKLEKAISEVKREERCRPSIWRSHDFEEAIEMFKETLESSENEVIVVTPSEFFKSIRETLIGILDRGVTLSLYIDKVPDISDFEGRGNFFLRRFTKFNHLIGLADGKVVATIQNVSFMPPSPPSFKSTFKEIIFSQYSLTLEIFKESSLEVEQIMNPQDIRFFAVFHAADFVKRHLPSSTIFSEIVGRNVKTGEVEKLYGKVVGYTLSFREGVNNIQIETEKGIVKVGGMFAVIEDYESTNVRLMLES

>  <soluble on expression in E. coli>
not soluble

$$$$

Hey, quick one: what's soluble on expression in E. coli for each of these?
1. MVPCWNHGNITRSKAEELLSRTGKDGSFLVRASESISRAYALCVLYRNCVYTYRILPNEDDKFTVQASEGVSMRFFTKLDQLIEFYKKENMGLVTHLQYPVPLEEEDTGDDPEEDTVESVVSPPELPPRNIPLTASSCEAKEVPFSNENPRATETSRPSLSETLFQRLQSMDTSGLPEEHLKAIQDYLSTQLAQDSEFVKTGSSSLPHLKKLTTLLCKELYGEVIRTLPSLESLQRLFDQQLSPGLRPRPQVKG
2. MSLHIIILSPVMPIWDRGVFCSSFTKLCLARGFHITLLDTLSLFPSHSAFCNNSTVEILPFITEKLKKYFKEPSVLVGFSMAGMLVQILAARLPNVQAVLAVNAPGYPDKPLKRQIGCILTFLKNKDLSGALEILNSFMCPRGGREKRVLWEIPDEQKSVAIERMTRGFTFLLGGDARDEIIKYTGKFLALIGEKSQLATLANQTKSQCLNHEYQVISGAGTRLWDDNPAMTNAIVHKWIDAL
3. NQLLTQQANEDGLTKLFNRRYIDQKLDSMVAWHGRHHMPMAMILLDVDFFKPFNDNYGHIEGDRCLQAIANQLKATFCRSGEYVGRYGGEEFVVLLSSTDAQTAEREAERIQEAMYFLDYQHEFSSVANRVTVSQGVFVFQPTGKENQADLYATADRALYTSKSLGRNTYTMVNAS
4. MGHHHHHHSHMDELVHDLASALEQTSEQNKLGELWEEMALSPRQQRRQLRKRRGRKRRSDFTHLAEHTCCYSEASESSLDEATKDCREVAPVTNFSDSDDTMVAKRHPALNAIVKSKQHSWHESDSFTENAPCRPLRRRRKVKRVTSEVAASLQQKLKVSDWSYERGCRFKSAKKQRLSRWKENTPWTSSGHGLCESAENRTFLSKTGRKERMECETDEQKQGSDENMSEW
5. MNVNRLLIVGAGAFGREVHAWLLDWVKLNPGWVIAGFINDGPGSIARFDHYPAVVSSVEGYEPGPEDYLVCAIAKPADKRLVVEKLLGKGARFFTLIHPSVIMGENVVIGQGAVICPSTVLSVDLRIGAFVTLNIGCLVGHDADIGDFSTLSGHCDITGGVVLEEEVFMGTHASVLPNVKVGKQAVVGAGSVAIRNVAAGITVFGVPAKRISGLEHHHHHH
6. MGSDKIHHHHHHMATLYLIEQGAEIGCDGERIVVRRAGEIIGSVPLVKVDDIVIFGNIGISTPAIKRLLDRSIEVTFMTVDGSYQGRLVGQVTAHVALRQAQYACAADSDRTLRLAQSFVEGKLRNQRALLQRFSRNRATPPAEALAAADDLDAYIKRVRRTTRLSALLGVEGSATARYFAGLRSLIEPEWDFRSRQRRPPPDPVNLLLSFGYTLLTHKTLGAVQAAGFDPYLGFLHSLDYGRPSLALDLMEEFRPLLIDSLVVRVCNDGRLRLEHFQPGDEARPVIITDEGKRAFLTAFEERMRTEATHPEGADSGPGKVTYQRCIALQARRLARVIRGQQERYEPFTAR
7. MGSDKIHHHHHHMIKELKTLIAVAREGTFAAAGDRIGLTQAAVSAQMQRLEAQLGVELFDRKGRSAQLNRMGQQVLLQGQELVRLYGSLGNSATGSAPNVLVTIGAIASVQRSFLPDALALFHRQFPQCRTRVIPGLSMDLVNQVDAGEVDLAAIIRPPFSLHSDLRWTTLMREPYRLIVPADLQGEDWAELISSQPFIRYDRSSFGGRQVDRFLRQTHVSLREVCELDELDAIVKLVANGVGVALVPETATIQAWPAGVRAVNLGPHTFHRDIGLVHRARRSLTEPVNVLAQLLTAQVQDTQ

1. soluble
2. not soluble
3. not soluble
4. not soluble
5. not soluble
6. not soluble
7. not soluble
